From: patent US11912693B2

Target: human sphingosine-1-phosphate receptor 1 (S1P1) (Homo sapiens (Human))
Assay: β-Arrestin2 recruitment assay (PathHunter), S1P1 CHO-K1 cells
Type: cell-based
Details: β-arrestin2 recruitment, S1P1 CHO-K1 cells

{"structure smiles string": "COc1ccc(-c2noc(-c3ccc4c(c3)nnn4C3CCCC3)n2)c2ccccc12", "system name": "human sphingosine-1-phosphate receptor 1 (S1P1) (Homo sapiens (Human))", "hS1P1 B-arrestin2 pEC50": "<5"}
{"structure smiles string": "O=C1CC(CO)(CO)Oc2ccc(-c3nc(-c4ccncc4)no3)cc21", "system name": "human sphingosine-1-phosphate receptor 1 (S1P1) (Homo sapiens (Human))", "hS1P1 B-arrestin2 pEC50": "<5"}
{"structure smiles string": "O=C1CC2(CCC(F)(F)CC2)Oc2ccc(-c3nc(-c4ccncc4)no3)cc21", "system name": "human sphingosine-1-phosphate receptor 1 (S1P1) (Homo sapiens (Human))", "hS1P1 B-arrestin2 pEC50": "<5"}
{"structure smiles string": "CCC1(CC)CC(=O)c2cc(-c3nc(-c4cncc(N)c4)no3)ccc2O1", "system name": "human sphingosine-1-phosphate receptor 1 (S1P1) (Homo sapiens (Human))", "hS1P1 B-arrestin2 pEC50": ">5"}
{"structure smiles string": "CCC1(CC)CC(=O)c2cc(-c3nc(-c4ccc(OC)cc4)no3)ccc2O1", "system name": "human sphingosine-1-phosphate receptor 1 (S1P1) (Homo sapiens (Human))", "hS1P1 B-arrestin2 pEC50": "<5"}
{"structure smiles string": "CC(C)Cn1nnc2cc(-c3nc4c(Br)cccc4o3)ccc21", "system name": "human sphingosine-1-phosphate receptor 1 (S1P1) (Homo sapiens (Human))", "hS1P1 B-arrestin2 pEC50": "<5"}
{"structure smiles string": "CC(C)n1nnc2cc(-c3noc(-c4ccccc4C(F)(F)F)n3)ccc21", "system name": "human sphingosine-1-phosphate receptor 1 (S1P1) (Homo sapiens (Human))", "hS1P1 B-arrestin2 pEC50": ">5"}
{"structure smiles string": "FC(F)(F)c1cccc(-c2noc(-c3ccc4c(c3)nnn4C3CCCC3)n2)c1", "system name": "human sphingosine-1-phosphate receptor 1 (S1P1) (Homo sapiens (Human))", "hS1P1 B-arrestin2 pEC50": "<5"}
{"structure smiles string": "COc1ccccc1-c1nnc(-c2ccc3c(c2)c(=O)on3C)o1", "system name": "human sphingosine-1-phosphate receptor 1 (S1P1) (Homo sapiens (Human))", "hS1P1 B-arrestin2 pEC50": "<5"}

* * *

Molecular target: human sphingosine-1-phosphate receptor 1 (S1P1) (Homo sapiens (Human))
Test: β-Arrestin2 recruitment assay (PathHunter), S1P1 CHO-K1 cells
Assay type: cell-based
Details: β-arrestin2 recruitment, S1P1 CHO-K1 cells
assay readout: hS1P1 B-arrestin2 pEC50

{"compound": "Cc1ccncc1-c1noc(-c2cnc3c(c2)nnn3C(C)C)n1 [Compound 414]", "readout value": "<5"}
{"compound": "Cc1ccc(-c2noc(-c3ccc4c(c3)nnn4C(C)C)n2)cn1 [Compound 236]", "readout value": "<5"}
{"compound": "CCC1(CC)CC(=O)c2cc(-c3nc(-c4ccccc4OC)no3)ccc2O1 [Compound 268]", "readout value": ">5"}
{"compound": "CCC1(CC)CC(=O)c2cc(-c3nc(-c4ccc5[nH]ncc5c4)no3)ccc2O1 [Compound 152]", "readout value": ">5"}
{"compound": "CC(C)n1nnc2cc(-c3nc(-c4ccccc4Br)no3)cnc21 [Compound 413]", "readout value": ">5"}
{"compound": "CCCn1nnc2cc(-c3nc(-c4cccc(C)c4)no3)ccc21 [Compound 54]", "readout value": "<5"}
{"compound": "CC(F)(F)CNc1ccc(-c2nnc(-c3ccc4[nH]ncc4c3)o2)cc1C#N [Compound 355]", "readout value": ">5"}
{"compound": "Cc1ccccc1-c1csc(-c2ccc3c(ccn3C(C)C)n2)n1 [Compound 409]", "readout value": "<5"}
{"compound": "Cc1ccccc1-c1nc(-c2ccc3c(c2)nnn3C(C)C)no1 [Compound 99]", "readout value": ">5"}
{"compound": "Cc1ccc(-c2noc(-c3ccc4c(c3)nnn4C3CCCC3)n2)cc1 [Compound 164]", "readout value": "<5"}
{"compound": "Brc1ccccc1-c1nc(-c2ccc3c(c2)nnn3Cc2ccccn2)no1 [Compound 45]", "readout value": "<5"}
{"compound": "COc1cccc(-c2nc(-c3ccc4[nH]ccc4c3)ns2)c1 [Compound 364]", "readout value": "<5"}
{"compound": "Cc1ncc(-c2nc(-c3ccc4c(c3)nnn4C(C)C)no2)nc1C [Compound 133]", "readout value": "<5"}
{"compound": "COc1ccccc1-c1nc(-c2ccc3c(c2)nnn3C(C)C)ns1 [Compound 138]", "readout value": ">5"}
{"compound": "CC(C)n1ccc2cc(-c3noc(-c4ccc(F)cc4)n3)ccc21 [Compound 400]", "readout value": "<5"}
{"compound": "Cc1cccc2oc(-c3ccc4c(c3)nnn4CC(C)C)nc12 [Compound 447]", "readout value": ">5"}
{"compound": "COc1ccccc1-c1cnc(-c2ccc3c(c2)nnn3C(C)C)nc1 [Compound 565]", "readout value": ">5"}
{"compound": "COc1ccc2nc(-c3ccc4c(c3)nnn4CC(C)C)oc2c1 [Compound 452]", "readout value": ">5"}
{"compound": "COC(=O)CCn1nnc2cc(-c3noc(-c4ccccc4Br)n3)ccc21 [Compound 161]", "readout value": "<5"}
{"compound": "COc1ccccc1-c1nc(-c2ccc3c(c2)nnn3C(C)(C)CO)no1 [Compound 623]", "readout value": "<5"}
{"compound": "CC(C)n1ccc2cc(-c3nc(-c4cccc5c4OCO5)no3)ccc21 [Compound 326]", "readout value": ">5"}
{"compound": "COc1cccc(-c2csc(-c3ccc4c(ccn4C(C)C)n3)n2)c1 [Compound 410]", "readout value": "<5"}
{"compound": "COc1ccc2nc(-c3ccc4c(c3)nnn4C(C)C)oc2c1 [Compound 426]", "readout value": "<5"}
{"compound": "Cc1nccnc1-c1nc(-c2ccc3c(c2)nnn3C(C)C)no1 [Compound 44]", "readout value": "<5"}
{"compound": "COc1ccc(-c2nc(-c3ccc4c(c3)nnn4C3CCCC3)no2)cc1 [Compound 196]", "readout value": "<5"}

* * *

hS1P2 IP-one pEC50 for assorted compounds
Target: human sphingosine-1-phosphate receptor 2 (S1P2) (Homo sapiens (Human), UniProt O95136)
Sequence (O95136 whole entry): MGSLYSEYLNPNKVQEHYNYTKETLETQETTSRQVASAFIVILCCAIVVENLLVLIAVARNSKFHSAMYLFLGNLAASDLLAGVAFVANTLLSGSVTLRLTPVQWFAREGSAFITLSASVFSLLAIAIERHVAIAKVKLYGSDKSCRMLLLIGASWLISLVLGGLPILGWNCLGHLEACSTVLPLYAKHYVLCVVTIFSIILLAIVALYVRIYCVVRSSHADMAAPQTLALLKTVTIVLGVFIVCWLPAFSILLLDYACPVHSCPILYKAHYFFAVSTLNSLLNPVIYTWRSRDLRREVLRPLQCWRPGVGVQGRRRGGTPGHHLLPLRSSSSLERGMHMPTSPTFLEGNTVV
Experiment: Inositol monophosphate production (IP-one TB kit), S1P2 CHO-K1 cells
Assay type: cell-based
Conditions: inositol monophosphate accumulation, hS1P2

{"compound": "CCC1(CC)CC(=O)c2cc(-c3nc(-c4ccccc4Cl)no3)ccc2O1 [Compound 221]", "hS1P2 IP-one pEC50": "<5.0"}
{"compound": "C=CCNc1ccc(-c2nc(-c3ccc(NS(C)(=O)=O)cc3)no2)cc1C#N [Compound 149]", "hS1P2 IP-one pEC50": "<5.0"}
{"compound": "CCC1(CC)CC(=O)c2cc(-c3nc(-c4ccc5[nH]c(=O)oc5c4)no3)ccc2O1 [Compound 445]", "hS1P2 IP-one pEC50": ">5.0"}
{"compound": "C=CCNc1ccc(-c2nc(-c3cn[nH]c3)no2)cc1C#N [Compound 252]", "hS1P2 IP-one pEC50": ">5.0"}

* * *

hS1P1 B-arrestin2 pEC50 for assorted compounds
Target: human sphingosine-1-phosphate receptor 1 (S1P1) (Homo sapiens (Human), UniProt P21453)
Sequence (P21453 whole entry, looked up): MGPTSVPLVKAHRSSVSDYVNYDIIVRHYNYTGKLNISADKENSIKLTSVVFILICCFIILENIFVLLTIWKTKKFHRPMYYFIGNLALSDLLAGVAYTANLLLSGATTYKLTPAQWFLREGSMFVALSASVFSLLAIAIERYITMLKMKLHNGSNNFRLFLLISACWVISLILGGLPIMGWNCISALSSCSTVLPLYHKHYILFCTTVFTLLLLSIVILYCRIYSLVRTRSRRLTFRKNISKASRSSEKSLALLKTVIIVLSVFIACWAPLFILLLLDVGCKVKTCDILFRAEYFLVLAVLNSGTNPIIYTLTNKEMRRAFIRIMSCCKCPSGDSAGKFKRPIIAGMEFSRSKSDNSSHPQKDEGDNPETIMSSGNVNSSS
Sequence (P32121 whole entry partner, looked up): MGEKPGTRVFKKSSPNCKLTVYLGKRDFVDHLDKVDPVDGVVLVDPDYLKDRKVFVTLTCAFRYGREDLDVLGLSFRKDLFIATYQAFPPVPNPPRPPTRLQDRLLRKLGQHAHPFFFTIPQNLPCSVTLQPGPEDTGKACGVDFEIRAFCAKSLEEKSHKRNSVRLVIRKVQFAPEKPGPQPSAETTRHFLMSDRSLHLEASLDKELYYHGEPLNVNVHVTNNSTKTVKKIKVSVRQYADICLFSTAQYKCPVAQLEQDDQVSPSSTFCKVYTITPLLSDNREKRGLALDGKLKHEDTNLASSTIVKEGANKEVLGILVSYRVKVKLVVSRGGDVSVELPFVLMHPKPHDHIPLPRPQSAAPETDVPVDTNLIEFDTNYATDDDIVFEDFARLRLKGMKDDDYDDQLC
Test: β-Arrestin2 recruitment assay (PathHunter), S1P1 CHO-K1 cells
Type: cell-based
Conditions: β-arrestin2 recruitment, S1P1 CHO-K1 cells

{"structure smiles string": "Cc1ccc2nc(-c3ccc4c(c3)nnn4C(C)C)oc2c1", "hS1P1 B-arrestin2 pEC50": "<5"}
{"structure smiles string": "CCc1ccccc1-c1nc(-c2ccc3c(c2)nnn3C(C)(C)CO)no1", "hS1P1 B-arrestin2 pEC50": "<5"}
{"structure smiles string": "Cc1ccncc1-c1nc(-c2ccc3c(c2)nnn3C(C)(C)CO)no1", "hS1P1 B-arrestin2 pEC50": "<5"}
{"structure smiles string": "CC(F)(F)CNc1ccc(-c2nc(-c3ccc4c(c3)CCC(=O)N4)no2)cc1C#N", "hS1P1 B-arrestin2 pEC50": ">5"}
{"structure smiles string": "CC(=O)Nc1ccc(-c2noc(-c3ccc(NC(C)C)c(C#N)c3)n2)cc1", "hS1P1 B-arrestin2 pEC50": "<5"}
{"structure smiles string": "CCc1ccccc1-c1nc(-c2ccc3c(c2)nnn3CC(C)(C)CO)no1", "hS1P1 B-arrestin2 pEC50": "<5"}
{"structure smiles string": "COc1cccc(-c2nc(-c3ccc4c(ccn4C(C)C)c3)no2)c1", "hS1P1 B-arrestin2 pEC50": "<5"}
{"structure smiles string": "CCC1(CC)CC(=O)c2cc(-c3nc(-c4ccc(NC(C)=O)cc4OC)no3)ccc2O1", "hS1P1 B-arrestin2 pEC50": ">5"}
{"structure smiles string": "COc1cccc(-c2nc(-c3ccc4c(c3)nnn4C(C)C)no2)c1", "hS1P1 B-arrestin2 pEC50": "<5"}
{"structure smiles string": "Cc1cnccc1-c1noc(-c2ccc3c(c2)nnn3CC(C)(C)O)n1", "hS1P1 B-arrestin2 pEC50": ">5"}
{"structure smiles string": "Cc1cnc(-c2noc(-c3ccc4c(c3)nnn4C3CCOCC3)n2)cn1", "hS1P1 B-arrestin2 pEC50": "<5"}
{"structure smiles string": "Cc1ccncc1-c1nc(-c2ccc3c(c2)nnn3C(C)C)no1", "hS1P1 B-arrestin2 pEC50": "<5"}
{"structure smiles string": "CCC1(CC)CC(=O)c2cc(-c3nnc(-c4ccccc4OC)o3)ccc2O1", "hS1P1 B-arrestin2 pEC50": "<5"}
{"structure smiles string": "C=CCNc1ccc(-c2nc(-c3ccc4c(c3)CC(=O)N4)no2)cc1C#N", "hS1P1 B-arrestin2 pEC50": ">5"}
{"structure smiles string": "CCC1(CC)CC(=O)c2cc(-c3nc(-c4ccc(S(N)(=O)=O)cc4)no3)ccc2O1", "hS1P1 B-arrestin2 pEC50": ">5"}
{"structure smiles string": "Cc1cnc(-c2nc(-c3ccc4c(c3)nnn4C(C)C)no2)cn1", "hS1P1 B-arrestin2 pEC50": "<5"}
{"structure smiles string": "CC(C)n1nnc2cc(-c3noc(C45CC6CC(CC(C6)C4)C5)n3)ccc21", "hS1P1 B-arrestin2 pEC50": "<5"}
{"structure smiles string": "CC(C)n1nnc2cc(-c3ncc(-c4cccc(F)c4)s3)ccc21", "hS1P1 B-arrestin2 pEC50": "<5"}
